As shown below, each of these compounds has a reported nuclear beta-catenin stimulation value.
- protocol_summary: stimulators of nuclear beta-catenin in C2C12, primary screen, imaging, WNT3A-conditioned medium, mouse C2C12, NPC library (AID 1117326); further: reference of the scale not given here
- study_conditions: at 10 µM, stronger effect = higher value
Provide the reading as a plain figure in %.

In the examples that follow, each entry is paired with its recorded nuclear beta-catenin stimulation.
CC1(C)CC1C(=O)NC(=CCCCCSCC(N)C(=O)O)C(=O)O (stereo not drawn) : -2.2
CC(C)(C)c1ccc(C(=O)CCCN2CCC(OC(c3ccccc3)c3ccccc3)CC2)cc1 : 0.6

O=c1[nH]c2cc(C(F)(F)F)c(N3CCOCC3)cc2n(CP(=O)(O)O)c1=O has a reported nuclear beta-catenin stimulation of 1.2

nuclear beta-catenin stimulation in this record for CCCCCCCC(=O)OCC(COC(=O)CCCCCCC)OC(=O)CCCCCCC : -0.5

Record Cc1c(C)c2c(c(C)c1O)CC[C@@](C)(CCC[C@H](C)CCC[C@H](C)CCCC(C)C)O2 , field nuclear beta-catenin stimulation: 0.1

Short answer for CC1=C(C(=O)OC(C)C)C(c2cccc([N+](=O)[O-])c2)C(C(=O)OC2CN(C(c3ccccc3)c3ccccc3)C2)=C(N)N1 (stereo not drawn) : nuclear beta-catenin stimulation was -2

// nuclear beta-catenin stimulation lookup, compound = CC(C)=CCC/C(C)=C/CO , result: -0.1

* * *

- protocol_summary: inhibition of endothelial tube formation, primary screen, imaging, VEGF stimulated, CD31 staining, tube area, NPC library (AID 1117340)
- study_conditions: VEGF-stimulated ADSC/ECFC co-culture, at 10 µM, stronger effect = higher value
metric: tube area decrease (%)
Write the number in % without appending the unit.

These recorded examples may help you get a feel for the data.
CCN(CC)CCCN(c1ccccc1)C1Cc2ccccc2C1 : 22.2
CN(CCCCCCCCCCN(C)C(=O)Oc1cccc([N+](C)(C)C)c1)C(=O)Oc1cccc([N+](C)(C)C)c1 : -9.4
COC(=O)[C@@H]1CC2=CC(=O)CC[C@]2(C)[C@@]23O[C@@H]2C[C@@]2(C)[C@@H](CC[C@@]24CCC(=O)O4)[C@H]13 : 23.1

Reported tube area decrease ( CCn1cc(C(=O)O)c(=O)c2ccc(C)nc21 ) = 2

Summary for this compound, CCCCc1cc2ccccc2c(OCCN(C)C)n1 : tube area decrease is 15.9

Reported tube area decrease for CN1CC(=O)N/C1=N/C(=O)Nc1cccc(Cl)c1 was -5.1

Reported tube area decrease for CN1C(=O)CC(C)(c2ccccc2)C1=O (configuration not stated) was -16.2

Entry CCCN(CCC)CCc1cccc2c1CC(=O)N2 ; tube area decrease = -10

Quick note, tube area decrease for Cc1cc(NS(=O)(=O)c2ccc(N)cc2)no1 landed at 1.9

Please fill in: tube area decrease reported for CN(C)CC/C=C1\c2ccccc2Sc2ccc(Cl)cc21 = 42.6

// field: tube area decrease; key: Cc1cc(=O)c2c(O)c3c(O)cc(=O)c4c3c3c(cc(O)c1c23)C(C)(C)C=4O ; value = 54.9

For COc1nccnc1NS(=O)(=O)c1ccc(N)cc1 the compound record lists tube area decrease as 2.9

The compound CC(C)c1c(C(=O)Nc2ccccc2)c(-c2ccccc2)c(-c2ccc(F)cc2)n1CC[C@@H](O)C[C@@H](O)CC(=O)O showed tube area decrease equal to 67.8

For record Cc1ccccc1C(=O)Nc1ccc(C(=O)N2CCCC(O)c3cc(Cl)ccc32)c(C)c1 (configuration not stated) the listed tube area decrease is 3.5

The measured tube area decrease associated with CN1C(=O)OC(C)(C)C1=O reads 13.2

// tube area decrease lookup, compound = C[C@@H](O[C@H]1OCCN(Cc2n[nH]c(=O)[nH]2)[C@H]1c1ccc(F)cc1)c1cc(C(F)(F)F)cc(C(F)(F)F)c1 , result: 108

For record CC(=O)N(CC(O)CO)c1c(I)c(C(=O)NCCO)c(I)c(C(=O)NCC(O)CO)c1I (configuration not stated) the listed tube area decrease is 1.4

Notebook: CC(=O)Oc1ccc2c(c1)CC[C@@H]1[C@@H]2CC[C@]2(C)[C@@H](O)CC[C@@H]12 , tube area decrease read as -71.2

Data point: CC(C)(C)NC[C@H](O)COc1cccc2c1CCCC2=O ; tube area decrease = 1

The recorded tube area decrease for entry CN1CCN(CCCN2c3ccccc3Sc3ccc(S(=O)(=O)N(C)C)cc32)CC1 equals 108

# tube area decrease (compound: COC(=O)C(c1ccccc1Cl)N1CCc2sccc2C1 (configuration not stated) ) is 1.2

// tube area decrease lookup, compound = O=C(Nc1ccc(C(=O)O)c(O)c1)c1ccccc1 , result: 7.2

* * *

- protocol_summary: glucagon-like peptide 1 release enhancers, primary assay, NCI-H716 cell line, NPC library (AID 1117341); further: reference of the scale not given here
- study_conditions: NCI-H716 cells, at 10 µM, stronger effect = higher value
GLP1 secretion stimulation listing for selected molecules.
Express it in %; write the number only.

Recorded GLP1 secretion stimulation, per entry:
Nc1c(CC(=O)O)cccc1C(=O)c1ccccc1 : 2.5
O=C(NCC1CCCCN1)c1cc(OCC(F)(F)F)ccc1OCC(F)(F)F (stereo unspecified) : 1.7
COCCOC(=O)C1=C(C)NC(C)=C(C(=O)OC/C=C/c2ccccc2)C1c1cccc([N+](=O)[O-])c1 (stereo unspecified) : -1.2
CCOCC(O)COc1ccc(NC(=O)CC[S+](C)C)cc1 (stereo unspecified) : -0.3
Cc1nc2c([nH]1)c(=O)n(C)c(=O)n2Cc1ccco1 : 2.9

Here's the next entry for you.
Consider CCCCCCCCCCCCCCCC[N+](C)(C)CCN(Cc1ccc(OC)cc1)c1ncccn1 . Its measured GLP1 secretion stimulation is 79.6

* * *

- protocol_summary: survival rescue of mitochondrial mutant cells in low glucose, primary screen, MELAS cybrids, Rieske KO mouse fibroblasts, CellTiter-Glo (AID 1508586);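 further: z relative to plate mean and SD of compound and empty wells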
- study_conditions: Rieske KO mouse fibroblast survival, CellTiter-Glo 72 h
metric: z-score
Could you keep your reply to the number by itself?

Illustrative cases are given below, each with its answer.
C[C@H](CCC(=O)O)[C@H]1CC[C@H]2[C@@H]3[C@@H](O)C[C@@H]4C[C@H](O)CC[C@]4(C)[C@H]3CC[C@]12C : -0.919
O=C(NOCC1CC1)c1ccc(F)c(F)c1Nc1ccc(I)cc1Cl : 0.299
CC(=O)c1ccc2c(c1)N(CCCN1CCC(CCO)CC1)c1ccccc1S2 : -0.0941

Input CC1(C)CCC(C)(C)c2cc(NC(=O)c3ccc(C(=O)O)cc3)ccc21 . Output z-score: -0.199

Entry Cc1cc(C(C)(C)CC(C)(C)C)ccc1OCCOCC[N+](C)(C)Cc1ccccc1 , z-score reported as 2.46

Given item O=C(N/N=C/c1ccc([N+](=O)[O-])o1)c1ccc(O)cc1 , the value recorded as its z-score is -1.34

For record O=c1cc(-c2ccc(O)cc2)oc2cc(O)cc(O)c12 the listed z-score is 0.346

For record CNS(=O)(=O)CCc1ccc2[nH]cc(C3CCN(C)CC3)c2c1 the listed z-score is 0.51

Reported z-score for C#C[C@]1(OC(C)=O)CC[C@H]2[C@@H]3CCC4=C[C@@H](OC(C)=O)CC[C@@H]4[C@H]3CC[C@@]21C was 0.556

The reported z-score of the compound CN1CCCN=C1/C=C/c1cccs1 was -0.214

* * *

- protocol_summary: stimulators of nuclear beta-catenin in C2C12, primary screen, imaging, WNT3A-conditioned medium, mouse C2C12, NPC library (AID 1117326); further: reference of the scale not given here
- study_conditions: stimulation, at 2 µM, stronger effect = higher value
Overview of reported nuclear beta-catenin stimulation across a group of molecules:
Give the number; % is assumed, so skip it.

O=C(CCCN1CCC(O)(c2ccc(Br)cc2)CC1)c1ccc(F)cc1 : 1.8
Cc1cccc(C)c1NC(=O)c1ccccc1C(=O)O : 0.7
CC(C(=O)O)c1ccc2c(c1)Cc1cccnc1O2 (configuration not stated) : -0.1
O=C(O)c1ccc[n+]([O-])c1 : 2
NC1=NCC2c3ccccc3Cc3ccccc3N12 (configuration not stated) : -1

Noted for CC(C)Cn1cnc2c1c(=O)n(C)c(=O)n2C : its nuclear beta-catenin stimulation reads -1.3

Query O=C(NCCCN1CCOCC1)c1ccc(Cl)cc1 yields nuclear beta-catenin stimulation of 1

CCN1CCc2nc(N)oc2CC1 has a reported nuclear beta-catenin stimulation of 0.3

The reported nuclear beta-catenin stimulation of the molecule CCN(CC)CCOc1ccc2c(c1)C(=O)c1cc(OCCN(CC)CC)ccc1-2 was 0.3

Given item O=C(Nc1cccc2c(=O)cc(-c3nn[nH]n3)oc12)c1ccc(OCCCCc2ccccc2)cc1 , the value recorded as its nuclear beta-catenin stimulation is -0.2

The measured nuclear beta-catenin stimulation associated with Cc1cc(OI)c(C(C)C)cc1-c1cc(C(C)C)c(OI)cc1C reads 5.1

Reported nuclear beta-catenin stimulation for CN1CCC[C@@H]1Cc1c[nH]c2ccc(CCS(=O)(=O)c3ccccc3)cc12 was 1
